// values below are reported binding signal
- Subject Of Test: GST-VND3 NAC domain (Arabidopsis thaliana, UniProt Q9FH59 12-162)
- Sequence: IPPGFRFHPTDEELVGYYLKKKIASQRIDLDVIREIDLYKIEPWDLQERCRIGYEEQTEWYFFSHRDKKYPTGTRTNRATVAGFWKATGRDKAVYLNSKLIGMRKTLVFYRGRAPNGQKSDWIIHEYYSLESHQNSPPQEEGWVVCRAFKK
- Experimental Details: universal protein binding microarray (PBM); high values mean tight binding
- Details: protein: recombinant; tags: GST; chain copies: 2; dsDNA, one strand shown
Record the value in E-score, omitting the unit from your answer.

[[record]]
sequence = "TCGGTCAA"
number = 0.0724

[[record]]
sequence = "GTTGCGTA"
number = 0.452

[[record]]
sequence = "ATACACGC"
number = 0.167

[[record]]
sequence = "GTGGTCAA"
number = 0.0872

[[record]]
sequence = "GGTCATAC"
number = 0.115


Task: Enter reported binding signal observed with GST-VND3 NAC domain (Arabidopsis thaliana, UniProt Q9FH59 12-162) for `AGTTGACG`
Result: 0.0565

Task: Queued: `CACGCCAC`
Result: 0.168

Task: What about `ACGCAAAC` ?
Result: 0.378

Task: Follow-up entry: `GTACGTAA`
Result: 0.417

Task: Queued: `TGAAGTCA`
Result: 0.0873

Task: Proceed to `AAGGTCAA`
Result: 0.101

Task: Okay, and `TAGCGTGA` ?
Result: 0.242

Task: Field entry: `CGACACGC`
Result: 0.138

Task: Same for `TAAGGAAA`
Result: 0.16

Task: Now consider `GACGCAAC` .
Result: 0.295

Task: Similarly, `GCAAGAAA` ?
Result: 0.12

Task: Likewise for `GTTTCTTA` ?
Result: 0.16

Task: Could you do the same for `ACGTAACC` , please?
Result: 0.409

Task: Repeat with `GTCAATCA`
Result: 0.132

---

- Subject Of Test: GST-SND1(1-203) (Arabidopsis thaliana, UniProt Q9LPI7 1-203)
- Sequence: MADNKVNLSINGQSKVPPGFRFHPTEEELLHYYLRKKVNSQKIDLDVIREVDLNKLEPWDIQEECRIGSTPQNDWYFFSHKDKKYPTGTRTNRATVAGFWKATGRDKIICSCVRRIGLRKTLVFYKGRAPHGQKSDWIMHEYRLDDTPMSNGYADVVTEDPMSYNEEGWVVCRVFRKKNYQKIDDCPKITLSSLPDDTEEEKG
- Experimental Details: universal protein binding microarray (PBM); transcription factors of Arabidopsis thaliana; high values mean tight binding
- Details: protein: recombinant; tags: GST; chain copies: 2; dsDNA, one strand shown
Readout Kind: binding signal (E-score)
Answer in E-score, number only, no unit symbol.

[[record]]
sequence = "AAGTAATA"
number = 0.294

[[record]]
sequence = "AACTTGAC"
number = 0.136

[[record]]
sequence = "GCGTACGC"
number = 0.288

[[record]]
sequence = "AAGAAACC"
number = 0.216

[[record]]
sequence = "CTACGCCA"
number = 0.454

[[record]]
sequence = "TTAAGCAA"
number = 0.473

[[record]]
sequence = "AGGGTAAG"
number = 0.111

[[record]]
sequence = "ATTCCTTA"
number = 0.306

[[record]]
sequence = "AACGTAGA"
number = 0.408

[[record]]
sequence = "CACGCAAA"
number = 0.426


Task: Give its binding signal value. Item: `CAAGCAAC`
Result: 0.435

Task: Then what about the sequence `GGACGCAA` ?
Result: 0.25
